assay-name: qHTS RealTime-Glo MT Cell Viability Assay in HEK293 cells - 24 hour (AID 1224886); also: nearly all actives have a fitted effect of over 50% in size
measurement-conditions: RealTime-Glo luminescence; series mostly up to 76.8 µM
Inconclusive results are not listed. Calls of active or inactive are those of the source. Calls follow the shape of the dose curve; as a rule, active = well fitted cell-killing curve with a large enough effect in the repeat runs; inconclusive = weak or mixed curves, or effect the other way; inactive = flat fitted curve, though single readings scatter.
Outcome codes: active, inactive

>  <molecule>
CCOc1cc(OCC)c(C(=O)CCC(=O)O)cc1OCC

>  <qualitative-label>
inactive

$$$$
>  <molecule>
CN1CCC(OC(c2ccccc2)c2ccccc2)CC1

>  <qualitative-label>
inactive

$$$$
>  <molecule>
Cc1cc(CC(=O)O)c(C)n1-c1ccc(Cl)cc1

>  <qualitative-label>
inactive

$$$$
>  <molecule>
C=CC(=O)OCC(C)OCC(C)OCC(C)OC(=O)C=C (stereo unspecified)

>  <qualitative-label>
active

$$$$
>  <molecule>
CCCCCCCCCO

>  <qualitative-label>
inactive

$$$$
>  <molecule>
Cc1cc(NC(=O)C(=O)O)cc(C)c1Oc1ccc(O)c2c1CCC2

>  <qualitative-label>
inactive

$$$$
>  <molecule>
N#Cc1cc2ccccc2c2ccccc12

>  <qualitative-label>
inactive

$$$$
>  <molecule>
Cc1cccc(C(C)(C)C)c1O

>  <qualitative-label>
inactive

$$$$
>  <molecule>
O=C(O)[C@@H]1[C@H]2C[C@H]3c4[nH]c5ccccc5c4CCN3C[C@@H]2CC[C@@H]1O

>  <qualitative-label>
inactive

$$$$
>  <molecule>
CC(C)(C)c1cc(O)c(C(C)(C)C)cc1O

>  <qualitative-label>
active

$$$$
>  <molecule>
CC(C)=CCCC(C)CC=O (stereo unspecified)

>  <qualitative-label>
inactive

$$$$
>  <molecule>
COc1ccc([C@@H]2Sc3ccccc3N(CCN(C)C)C(=O)[C@@H]2OC(C)=O)cc1

>  <qualitative-label>
inactive

$$$$
>  <molecule>
C=CC[N+]1([C@H]2C[C@H]3[C@@H]4CC[C@H]5C[C@H](OC(C)=O)[C@@H](N6CCCCC6)C[C@]5(C)[C@H]4CC[C@]3(C)[C@H]2OC(=O)CC)CCCCC1

>  <qualitative-label>
inactive

$$$$
>  <molecule>
CC(C)(C)C1CCCCC1O (stereo unspecified)

>  <qualitative-label>
inactive

$$$$
>  <molecule>
C1=Cc2ccccc2C1

>  <qualitative-label>
inactive

$$$$
>  <molecule>
CN1CCC(=C2c3ccccc3C=Cc3ccccc32)CC1

>  <qualitative-label>
inactive

$$$$
>  <molecule>
NCCCN(CCO)CCO

>  <qualitative-label>
inactive

$$$$
>  <molecule>
CCOc1nc2cccc(C(=O)O)c2n1Cc1ccc(-c2ccccc2-c2nn[nH]n2)cc1

>  <qualitative-label>
inactive

$$$$
>  <molecule>
Nc1cnn([C@@H]2O[C@H](CO)[C@@H](O)[C@H]2O)c(=O)n1

>  <qualitative-label>
inactive

$$$$
>  <molecule>
OCCC1CCCCN1 (stereo unspecified)

>  <qualitative-label>
inactive

$$$$
>  <molecule>
OCC1CC2CC1C1CCC(CO)C21 (stereo unspecified)

>  <qualitative-label>
inactive

$$$$
>  <molecule>
CCOc1ccc2[nH]cc(C(=O)NCc3ccccc3)c(=O)c2n1

>  <qualitative-label>
inactive

$$$$
>  <molecule>
CCCCCCCCCC=O

>  <qualitative-label>
inactive

$$$$
>  <molecule>
CCOC(=O)CC(C)C

>  <qualitative-label>
inactive

$$$$
>  <molecule>
NCCCOCCOCCOCCCN

>  <qualitative-label>
inactive

$$$$
>  <molecule>
O=C(/C=C/c1ccc(O)c(O)c1)O[C@@H]1C[C@](O)(C(=O)O)C[C@@H](O)[C@H]1O

>  <qualitative-label>
inactive

$$$$
